Below, each of the compounds is paired with its reported IC50 value.
Test system: Hela cells
Test: cells
Conditions: Homo sapiens, 20 h
The figure you give is taken to be in µM; do not add the unit.

[
  {
    "compound": "O=C1OCC2=C1C(c1cccc(O)c1)NC(=S)N2 (centres unmarked) [Entry 8]",
    "observationType": "IC50",
    "readoutUnit": "µM",
    "obsValue": 300
  },
  {
    "compound": "CCOC(=O)C1=C(C)NC(=S)NC1c1cccc(O)c1 (centres unmarked) [Monastrol, reference compound]",
    "observationType": "IC50",
    "readoutUnit": "µM",
    "obsValue": 300
  },
  {
    "compound": "CCOC(=O)C1=C(CO)NC(=S)NC1c1cccc(O)c1 (centres unmarked) [Entry 7]",
    "observationType": "IC50",
    "readoutUnit": "µM",
    "obsValue": 300
  },
  {
    "compound": "O=C1NCCC2=C1C(c1cccc(O)c1)NC(=S)N2 (centres unmarked) [Entry 1]",
    "observationType": "IC50",
    "readoutUnit": "µM",
    "obsValue": 50
  },
  {
    "compound": "CCOC(=O)C1=C(CN)NC(=S)NC1c1cccc(O)c1 (centres unmarked) [Entry 6]",
    "observationType": "IC50",
    "readoutUnit": "µM",
    "obsValue": 200
  }
]

Which measured IC50 value corresponds to O=C1OCCC2=C1C(c1cccc(O)c1)NC(=S)N2 (centres unmarked) [Entry 5] ?
30
